Biological target: T1, PDZD7_3, Q9H5P4
T1 sequence (Q9H5P4 857-944, limits assumed, looked up): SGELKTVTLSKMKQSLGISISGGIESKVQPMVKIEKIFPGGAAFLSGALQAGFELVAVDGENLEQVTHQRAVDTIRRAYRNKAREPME
Experiment: holdup assay
Parameters: key: below the threshold = too weak to quantify, mostly under pKd 3.1 to 4
Conditions: plain residues with an end cap or a label only (N-terminal biotin on a linker: ado-ado)

Binder | pKd
GTMFLRETSL [GUCY1A2, P33402] | 4.97
PEKVSNTTVV [IGSF5, Q9NSI5] | 4.66
MLPANYVEAI [NEB, P20929] | 3.52
THHRKIHTRV [ZNF599, Q96NL3] | 4.53
YAEKRMLTEV [KCNA6, P17658] | 4.95
QQGLLPHSSC [TYRO3, Q06418] | 3.9
AHGSTRDQSI [KCNB1, Q14721] | 3.67
NKSEPFLTWL [WWTR1, Q9GZV5] | 5.12
HYPASPDSWV [CTNND2, Q9UQB3] | 4.3
VISSDDLTEL [CAPN6, Q9Y6Q1] | 3.87
TKEIPNCTSV [SORCS3, Q9UPU3] | 4.82
KIEDVEITLV [FCHSD2, O94868] | 5.46
WAKEKQHTRL [SLC17A1, Q14916] | 4.87
